Source listed as patent US4920103A.

System: Staphylococcus aureus V41
method-notes: MIC, standard agar-dilution assay, S. aureus V41
Type: cell-based
cond: Staphylococcus aureus, V41
Provide the reported MIC of each item.
The reply should read as a number followed by its unit.

# get_value(readout='MIC', item= CCC1OC(=O)CC(O)C(C)C(OC2OC(C)C(O)C(N(C)C)C2O)C(CCOc2ccccc2)CC(C)C(=O)C=CC(C)=CC1COC1OC(C)C(N2CCCCC2)C(OC)C1OC (stereo not drawn) [Compound 42] ) 4 µg/mL

Can you check CCC1OC(=O)CC(O)C(C)C(OC2OC(C)C(OC(C)=O)C(N(C)C)C2OC(C)=O)C(CCOc2ccccc2)CC(C)C(=O)C=CC(C)=CC1COC1OC(C)C(N)C(OC)C1OC (stereo not drawn) [Compound 20] next? 0.25 µg/mL

Same thing, different compound: CCC1OC(=O)CC(O)C(C)C(OC2OC(C)C(O)C(N(C)C)C2O)C(CCOc2ccccc2)CC(C)C(=O)C=CC(C)=CC1COC1OC(C)C(OS(=O)(=O)Cc2ccccc2)C(OC)C1OC (stereo not drawn) [Compound 17] 4 µg/mL

----------
Test system: Streptococcus Group D X66
method-notes: MIC, standard agar-dilution assay, Streptococcus Group D X66
Format: cell-based
Consider the following compounds; for each one, report its log10 of MIC.
Scale: decimal log of MIC, MIC in µg/mL.

Can you look up the measured log10 of MIC of CCC1OC(=O)CC(O)C(C)C(OC2OC(C)C(O)C(N(C)C)C2O)C(CCOc2ccccc2)CC(C)C(=O)C=CC(C)=CC1COC1OC(C)C(OCCOC)C(OC)C1OC (stereo not shown) for me? 0.90

Try this compound too: CCC1OC(=O)CC(O)C(C)C(OC2OC(C)C(O)C(N(C)C)C2O)C(CCOc2ccccc2)CC(C)C(=O)C=CC(C)=CC1COC1OC(C)C(N(C)C)C(OC)C1OC (stereo not shown) 1.51

Cool, now CCC1OC(=O)CC(O)C(C)C(OC2OC(C)C(O)C(N(C)C)C2O)C(CCOc2ccccc2)CC(C)C(=O)C=CC(C)=CC1COC1OC(C)C(=NO)C(OC)C1OC (stereo not shown) 0.30

Same for CCC1OC(=O)CC(O)C(C)C(OC2OC(C)C(O)C(N(C)C)C2O)C(CCOc2ccccc2)CC(C)C(=O)C=CC(C)=CC1COC1OC(C)C(NC(C)=O)C(OC)C1OC (stereo not shown) 1.81

Lookup CCC1OC(=O)CC(O)C(C)C(OC2OC(C)C(O)C(N(C)C)C2O)C(CCOc2ccccc2)CC(C)C(=O)C=CC(C)=CC1COC1OC(C)C(N(C)CC#N)C(OC)C1OC (stereo not shown) 1.51

Moving on to the next compound: CCC1OC(=O)CC(O)C(C)C(OC2OC(C)C(O)C(N(C)C)C2O)C(CCOc2ccccc2)CC(C)C(=O)C=CC(C)=CC1COC1OC(C)C(NCC#N)C(OC)C1OC (stereo not shown) 0.90

And for CCCN(CCC)C1C(C)OC(OCC2C=C(C)C=CC(=O)C(C)CC(CCOc3ccccc3)C(OC3OC(C)C(O)C(N(C)C)C3O)C(C)C(O)CC(=O)OC2CC)C(OC)C1OC (stereo not shown) ? 1.20

And the next one, CCC1OC(=O)CC(O)C(C)C(OC2OC(C)C(OC(C)=O)C(N(C)C)C2OC(C)=O)C(CCOc2ccccc2)CC(C)C(=O)C=CC(C)=CC1COC1OC(C)C([n+]2ccccc2)C(OC)C1OC (stereo not shown) ? 1.20

Can you handle CCC1OC(=O)CC(O)C(C)C(OC2OC(C)C(O)C(N(C)C)C2O)C(CCOc2ccccc2)CC(C)C(=O)C=CC(C)=CC1COC1OC(C)C(NC(C)C)C(OC)C1OC (stereo not shown) next? 1.81

What would you report for CCC1OC(=O)CC(O)C(C)C(OC2OC(C)C(O)C(N(C)C)C2O)C(CCOc2ccccc2)CC(C)C(=O)C=CC(C)=CC1COC1OC(C)C(=O)C(OC)C1OC (stereo not shown) ? 0.60
